target: BpDdl (Burkholderia pseudomallei D-alanine-D-alanine ligase) (Burkholderia pseudomallei); construct: gene ddl; assay: biochemical
Measured parameter: Ki (µM)

Compound: N[C@@H]1CON=C1O [DCS]
Target or test system: BpDdl (Burkholderia pseudomallei D-alanine-D-alanine ligase) (Burkholderia pseudomallei)
Measured parameter: Ki
Unit annotation: µM
Test value: 100

* * *

biological target: BpDdl (Burkholderia pseudomallei D-alanine-D-alanine ligase) (Burkholderia pseudomallei, UniProt Q63QJ9); construct: gene ddl; assay: biochemical
Sequence (Q63QJ9 whole entry, looked up): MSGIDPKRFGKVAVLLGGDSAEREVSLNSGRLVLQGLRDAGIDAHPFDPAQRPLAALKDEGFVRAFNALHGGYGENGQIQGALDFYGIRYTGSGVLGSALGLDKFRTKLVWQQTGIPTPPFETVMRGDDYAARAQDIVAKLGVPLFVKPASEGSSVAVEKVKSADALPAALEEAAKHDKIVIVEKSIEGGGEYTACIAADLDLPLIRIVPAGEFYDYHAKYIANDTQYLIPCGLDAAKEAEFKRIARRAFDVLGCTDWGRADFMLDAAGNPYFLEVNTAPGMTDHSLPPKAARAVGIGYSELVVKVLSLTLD
pKi: −log10 of the molar value.

Compound: CC(=O)NCc1ccccc1Cl
pKi: 2.00
